Documented protein stability index across a set of sequences
assay remarks: protein stability index of a GFP-peptide fusion (GPS, HEK-293T) (PSI 1-6); higher = more stable;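 also: 24-mer peptide tiles fused after GFP, lentivirally expressed, FACS-sorted into six equal bins by GFP/DsRed ratio, decoded by Illumina sequencing, PSI is the read-weighted mean bin number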
measurement setup: treatment: DMSO; c terminus: a fixed tail appended
Just the number, please, no unit after it.

Problem: Fill in: protein stability index of QFLGFSWIFVNLTVRFCILGKESF [HACD3] is ___
Result: 3.49

Problem: Which protein stability index is reported for this sequence? GRKPERRRLKTTRLKEYTIKSHSS [DAPK3]
Result: 3.92

###

# protein stability index per record follows
assay remarks: protein stability index of a GFP-peptide fusion (GPS, HEK-293T) (PSI 1-6); higher = more stable
measurement setup: treatment: DMSO; c terminus: a fixed tail appended
Please reply with the value in numeric form only.

PVQELPPSLRAPPPGGWPLQPRVQ [ZMAT5] :: 4.02
HARARDQGQPAMEGHCVIQVDVGD [PCDHGC5] :: 4.61
ELWIYNMETGRWKKINTEGDVPPS [KLHDC2] :: 3.43
DEPTFKVLLKTADPRYELPSRKYI [ZBED1] :: 2.81
WSRNSKPVHTTILNPHIHLMGDES [CAMK2A] :: 3.4

Problem: Name the reported protein stability index value associated with the sequence TYVSPPGNEEEESKIFTTLDPASL [DDIT3]
Result: 4.91

Problem: Which value of protein stability index has been reported for HSIALSTFASLIGPFGGFFASGFK [CDS1] in the records?
Result: 2.57
